Would you kindly list pIC50 for each of these compounds?
# tgt: BRD4-BD1 (Homo sapiens (Human))
# assay_summary: BRD4-H4 Tetraacetylated Peptide Inhibition AlphaScreen
# conditions_used: GST-BRD4-BD1 (aa 44-168), biotinylated Acetyl-Histone H4 peptide
Give bare numbers, as −log10 of the molar value.

List the reported pIC50 of each compound below.
1. COC[C@H](C)n1c(-c2cc(C)c(=O)n(C)n2)nc2cnc(N3CCOC[C@@H]3C)cc21
2. Cc1cc(-c2nc3cnc(Cl)cc3n2C(C)c2ccccn2)cn(C)c1=O (centres unmarked)
3. Cc1cc(-c2nc3cc(Cl)c(Cl)cc3n2Cc2ccc(Cl)c(Cl)c2)cn(C)c1=O

1: 7.21; 2: 6.19; 3: 5.32

Below are 5 compounds. Give each one its pIC50.
1. Cc1cc(-c2nc3cnc(N4CCOCC4)cc3n2C(C)c2ccccn2)cn(C)c1=O (centres unmarked)
2. Cc1cc(-c2nc3ccc(C4CCOCC4)cc3n2Cc2ccccn2)cn(C)c1=O
3. Cc1cc(-c2nc3cnc(N4CCOC[C@@H]4C)nc3n2[C@@H](C)c2ccccc2)cn(C)c1=O
4. Cc1cc(-c2nc3cnc(N)cc3n2[C@@H](C)c2ccccc2)cn(C)c1=O
5. Cc1cc(-c2nc3ccc(N4CCN(C)CC4)cc3n2Cc2ccccc2)c[nH]c1=O

1: 6.76; 2: 7.14; 3: 7.92; 4: 7.46; 5: 7.02

###

For each of the compounds below, state its pIC50.
# tgt: BRD4-BD1 (Homo sapiens (Human), UniProt O60885)
# assay_summary: BRD4-H4 Tetraacetylated Peptide Inhibition AlphaScreen
# conditions_used: GST-BRD4-BD1 (aa 44-168), biotinylated Acetyl-Histone H4 peptide
One number for each entry, as −log10 of the molar value.

# compound, tgt, pIC50
rows = [
    ("Cc1cc(-c2nc3cnc(OC(C)C)cc3n2[C@@H](C)c2ccccn2)cn(C)c1=O [II-38]", "BRD4-BD1 (Homo sapiens (Human), UniProt O60885)", 6.69),
    ("Cc1cc(-c2nc3cc(S(=O)(=O)N(C)C)cnc3n2Cc2ccccc2)cn(C)c1=O [IV-9]", "BRD4-BD1 (Homo sapiens (Human), UniProt O60885)", 6.92),
    ("Cc1cc(-c2nc3ccc(F)cc3n2Cc2ccccc2)cn(C)c1=O [Example I-12]", "BRD4-BD1 (Homo sapiens (Human), UniProt O60885)", 7.74),
    ("Cc1cc(-c2nc3cnccc3n2Cc2ccc(F)c(F)c2)cn(C)c1=O [II-27]", "BRD4-BD1 (Homo sapiens (Human), UniProt O60885)", 6.78),
    ("Cc1cc(-c2nc3cnccc3n2Cc2ccccc2)cn(C)c1=O [II-8]", "BRD4-BD1 (Homo sapiens (Human), UniProt O60885)", 6.83),
]

Give pIC50 for all compounds that follow.
1. Cc1cc(-c2nc3ccc(C4CCOCC4)cc3n2[C@@H](C)c2ccccn2)cn(C)c1=O [Example I-27]
2. CCCOc1ccc2nc(-c3cc(C)c(=O)n(C)c3)n([C@@H](C)c3ccccc3)c2n1 [III-6]
3. Cc1cc(-c2nc3ccc(N4CCN(C)CC4)cc3n2Cc2ccccc2)cn(C)c1=O [Example I-1]
4. Cc1cc(-c2nc3cnc(C(C)C)cc3n2[C@@H](C)c2ccccn2)cn(C)c1=O [II-33]
5. Cc1cc(-c2nc3cnc(C4CCOCC4)cc3n2[C@@H](C)c2ccccn2)cn(C)c1=O [II-34]
6. Cc1cc(-c2nc3cnc(C4=CCCCO4)cc3n2C(C)c2ccccn2)cn(C)c1=O (centres unmarked) [II-40]
7. CCOc1cc(=O)n(C)cc1-c1nc2cnc(C3CCOCC3)cc2n1[C@@H](C)c1ccccc1 [II-44]

6.99
6.97
7.92
6.77
6.92
6.53
6.73
